Where do the numbers come from? From patent US20240002497A1.

Biological target: T1, rhNav1.7α + β1-β2-β3 (rhesus monkey)
T1 construct: also called rhNav1.7-beta1-beta2-beta3; rhNav1.7-β1-β2-β3
Test: binding FACS, CHO FlpIn
Procedure: Binding of the ISVDs to cell-expressed Nav1.7α was detected via murine anti-Flag (Sigma, catalog #F1804). Briefly, cells were resuspended in FACS buffer (PBS, 10% FBS, NaN₃) and transferred to a 96-well V-bottom plate at 1×10^5 cells/well. Purified FLAG3-tagged ISVD was diluted in FACS buffer and added to the cells for 30 minutes at 4° C. […] Prior to the read-out, the samples were resuspended in 1 μg/mL propidium iodide (Sigma, catalog #P4170) to exclude dead cells. […]
quantity-name: EC50 (nM)

binder	experimental-result
F010302360 (VHH) VHH: EVQLVESGGGVVQPGGSLRLSCAASHRQFIRDVFTGWYRQAPGKQRELVARIYNEGNTQYADSVKGRFTISRDNAKKTVYLQMNSLRPEDTALYYCLFSGTISTGREYRSGDYWGQGTLVTVSS	15
F010302359 (VHH) VHH: EVQLVESGGGVVQPGGSLRLSCAASSRQFIRDVFTGWYRQAPGKQRELVARIYESGNTQYADSVKGRFTISRDNAKKTVYLQMNSLRPEDTALYYCLFSGTISTGREYRSGDYWGQGTLVTVSS	24
F010302348 (VHH) VHH: EVQLVESGGGVVQPGGSLRLSCAASHRAFIRDLFTGWYRQAPGKQRELVARIYESGNTNYADSAKGRFTISRDNAKKTVYLQMNSLRPEDTALYYCLFSGTISTGREYRSGDYWGQGTLVTVSS	14
F010301934 (VHH, also called F0103464B09(L11V, M77T, K83R, V89L)) VHH: EVQLVESGGGVVQPGGSLRLSCATTSRAFIRDVFTGWYRRVPGKERELVARIYNGGNTNYADFAKGRFSISRDNAKKTVTLRMSNLRPEDTGLYYCLFSGTINTGREYRSGDYWGQGTLVTVSS	21
F010302344 (VHH) VHH: EVQLVESGGGVVQPGGSLRLSCAASHRQFIRDVFTGWYRQAPGKQRELVARIYNEGNTQYADSAKGRFTISRDNAKKTVYLQMNSLRPEDTALYYCLFSGTISTGREYRSGDYWGQGTLVTVSS	13

(I) F0103464B09 (parental)-FLAG-HIS6 (VHH, also called F010346B09) VHH: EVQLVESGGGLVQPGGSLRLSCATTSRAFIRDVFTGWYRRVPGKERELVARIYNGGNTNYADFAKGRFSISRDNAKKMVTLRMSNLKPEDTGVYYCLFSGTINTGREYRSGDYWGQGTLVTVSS
(II) F010302338 (VHH) VHH: EVQLVESGGGVVQPGGSLRLSCAASHRAFIRDVFTGWYRRAPGKQRELVARIYESGNTQYADSAKGRFTISRDNAKKTVYLQMNSLRPEDTALYYCLFSGTISTGREYRSGDYWGQGTLVTVSS
(III) F010302345 (VHH) VHH: EVQLVESGGGVVQPGGSLRLSCAASHRQFIRDVFTGWYRQAPGKQRELVARIYEGGNTQYADSAKGRFTISRDNAKKTVYLQMNSLRPEDTALYYCLFSGTISTGREYRSGDYWGQGTLVTVSS
# rank by EC50, ascending (min first) Output the labels ranked as instructed.
II, III, I
(II: 7.9 nM, III: 12 nM, I: 18 nM)
